Target: Human neutrophil elastase (Homo sapiens (Human), UniProt P08246)
Sequence (P08246 30-267): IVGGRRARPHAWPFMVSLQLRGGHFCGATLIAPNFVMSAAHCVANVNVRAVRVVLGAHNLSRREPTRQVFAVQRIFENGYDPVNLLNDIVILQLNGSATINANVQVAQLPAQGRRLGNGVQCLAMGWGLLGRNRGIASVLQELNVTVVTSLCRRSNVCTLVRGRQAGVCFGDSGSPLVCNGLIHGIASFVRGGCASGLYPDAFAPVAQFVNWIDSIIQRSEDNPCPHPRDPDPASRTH
Test: Human Neutrophil Elastase Assay
Conditions: substrate MeOSuc-Ala-Ala-Pro-Val-AMC 250 μM, pH 7.5, fluorescence
quantity: pIC50
Numbers only, as −log10 of the molar value.

Field: example entries. Status: answers known.
| structureAsSmiles | testedSystem | reportedResult |
| --- | --- | --- |
| Cc1c(-c2cccc(C(F)(F)F)c2)c(=O)c(C(=O)NCc2ccc(S(C)(=O)=O)c(F)c2)cn1C(C)C | Human neutrophil elastase (Homo sapiens (Human), UniProt P08246) | 7.82 |
| Cc1c(-c2cccc(C(F)F)c2)c(=O)c(C(=O)NCc2ccc(S(C)(=O)=O)cn2)cn1C1CCC1 | Human neutrophil elastase (Homo sapiens (Human), UniProt P08246) | 7.46 |
| Cc1c(-c2cccc(C(F)F)c2)c(=O)c(C(=O)NCc2ccc(S(C)(=O)=O)c(F)c2)cn1C(C)C | Human neutrophil elastase (Homo sapiens (Human), UniProt P08246) | 7.80 |
| Cc1c(-c2cccc(C(F)(F)F)c2)c(=O)c(C(=O)NCc2cn3c(n2)S(=O)(=O)CC3)cn1C(C)C | Human neutrophil elastase (Homo sapiens (Human), UniProt P08246) | 8.28 |

Could you tell me pIC50 for each of these molecules? They are listed below.
1. Cc1nnc(CNC(=O)c2cn(C(C)C)c(C)c(-c3cccc(C(F)F)c3)c2=O)o1
2. CCc1c(-c2cccc(C(F)(F)F)c2)c(=O)c(C(=O)NCc2ccc(S(=O)(=O)CC)cc2)cn1C(C)C
3. CC[C@H](C)n1cc(C(=O)NCc2ccc(S(C)(=O)=O)cc2)c(=O)c(-c2ccnc(C(F)(F)F)c2)c1C
4. CC[C@@H](C)n1cc(C(=O)NCc2nnc(C)o2)c(=O)c(-c2cccc(C(F)(F)F)c2)c1C
5. Cc1c(-c2cccc(C(F)F)c2)c(=O)c(C(=O)NCc2ccc(Cn3ccnc3)cc2)cn1C(C)C
6. Cc1c(-c2cccc(C(F)(F)F)c2)c(=O)c(C(=O)NCc2ccc(S(C)(=O)=O)cc2)cn1C1CC1

Response line:
1. 7.57
2. 7.96
3. 7.27
4. 7.43
5. 7.74
6. 7.52

Could you tell me pIC50 for each of these molecules? They are listed below.
1. COc1cc(CNC(=O)c2cn(C(C)C)c(C)c(-c3cccc(C(F)(F)F)c3)c2=O)ccc1S(C)(=O)=O
2. CCC(CC)n1cc(C(=O)NCc2ccc(S(C)(=O)=O)cn2)c(=O)c(-c2cccc(C(F)(F)F)c2)c1C
3. Cc1c(-c2cccc(C(F)F)c2)c(=O)c(C(=O)NCc2ccc3c(c2)CCS3(=O)=O)cn1C(C)C
4. Cc1c(-c2cccc(C(F)F)c2)c(=O)c(C(=O)NCc2ccc(S(N)(=O)=O)cc2)cn1C(C)C
5. CCCn1cc(C(=O)NCc2ccc(S(C)(=O)=O)cn2)c(=O)c(-c2cccc(C(F)(F)F)c2)c1C

Response line:
1. 7.33
2. 7.92
3. 8.52
4. 7.38
5. 7.70
